Here, each record is paired with measured half-life data.
test: Pharmacokinetics of three diester alkaloids in rat plasma after oral Aconiti Lateralis Radix extract, with or without 7-day P. ginseng pretreatment; format: in vivo, Sprague-Dawley rats; conditions: Sprague-Dawley, rat, in vivo, po, 1 g/kg, oral Aconiti Lateralis Radix extract 1 g/kg on 8th day, P. ginseng-middle (1 g/kg oral, 7 days), read-out: t1/2z (converted)

molecule	meas value
COC[C@@]12CC[C@H](OC)[C@]34C(C([C@H](OC)[C@H]13)[C@]1(OC(C)=O)[C@H]3[C@@H](OC(=O)c5ccccc5)[C@](O)(C[C@H]34)[C@@H](OC)[C@@H]1O)N(C)C2 [Hypaconitine]	6.97 h

Tell me the measured half-life of CCN1C[C@]2(COC)[C@H](O)C[C@H](OC)[C@@]34[C@@H]5C[C@@]6(O)[C@H](OC(=O)c7ccccc7)[C@@H]5[C@@](OC(C)=O)([C@@H]([C@H](OC)[C@H]23)[C@@H]14)[C@@H](O)[C@@H]6OC [Aconitine] , please. 6.14 h

* * *

experiment: Pharmacokinetics of three diester alkaloids in rat plasma after oral Aconiti Lateralis Radix extract, with or without 7-day P. ginseng pretreatment; type: in vivo, Sprague-Dawley rats; conditions: Sprague-Dawley, rat, in vivo, po, 1 g/kg, oral Aconiti Lateralis Radix extract 1 g/kg on 8th day, P. ginseng-middle (1 g/kg oral, 7 days), read-out: Vz/F
measurement kind: Vd/F (L/kg)
// note: answer is a bare numeric in L/kg

record smiles	Vd/F / L/kg
CCN1C[C@]2(COC)[C@H](O)C[C@H](OC)[C@@]34[C@@H]5C[C@@]6(O)[C@H](OC(=O)c7ccccc7)[C@@H]5[C@@](OC(C)=O)([C@@H]([C@H](OC)[C@H]23)[C@@H]14)[C@@H](O)[C@@H]6OC	1460

Now let's try a different one.
Tell me the measured Vd/F of `COC[C@@]12CC[C@H](OC)[C@]34C(C([C@H](OC)[C@H]13)[C@]1(OC(C)=O)[C@H]3[C@@H](OC(=O)c5ccccc5)[C@](O)(C[C@H]34)[C@@H](OC)[C@@H]1O)N(C)C2` , please. 1400

* * *

Here, each record is paired with measured half-life data.
Test: Pharmacokinetics of three diester alkaloids in rat plasma after oral Aconiti Lateralis Radix extract, with or without 7-day P. ginseng pretreatment
Type: in vivo, Sprague-Dawley rats
Conditions: Sprague-Dawley, rat, in vivo, po, 1 g/kg, oral Aconiti Lateralis Radix extract 1 g/kg on 8th day, P. ginseng-high (10 g/kg oral, 7 days), read-out: t1/2z (converted)
Protocol: Rats were randomly divided into 4 groups: control group, P. ginseng (low, middle, and high) group. 7 days of oral administration of P. ginseng extract was administered at a dosage of 0.1, 1, 10 g/kg for P. ginseng group (low, middle, and high), respectively, once daily. […] The data was acquired and analyzed by XEVO-QT-S (Waters). The pharmacokinetic parameters were analyzed by DAS pharmacokinetic program (Version 2.0). […]
State the result as a value with its unit after it.

compound	measurement kind	meas value
COC[C@@]12CC[C@H](OC)[C@]34C(C([C@H](OC)[C@H]13)[C@]1(OC(C)=O)[C@H]3[C@@H](OC(=O)c5ccccc5)[C@](O)(C[C@H]34)[C@@H](OC)[C@@H]1O)N(C)C2 [Hypaconitine]	half-life	11.7 h

Now let's try a different one.
Tell me the measured half-life of CCN1C[C@]2(COC)[C@H](O)C[C@H](OC)[C@@]34[C@@H]5C[C@@]6(O)[C@H](OC(=O)c7ccccc7)[C@@H]5[C@@](OC(C)=O)([C@@H]([C@H](OC)[C@H]23)[C@@H]14)[C@@H](O)[C@@H]6OC [Aconitine] , please. 26.5 h

* * *

test: Pharmacokinetics of three diester alkaloids in rat plasma after oral Aconiti Lateralis Radix extract, with or without 7-day P. ginseng pretreatment; format: in vivo, Sprague-Dawley rats; settings: Sprague-Dawley, rat, in vivo, po, 1 g/kg, oral Aconiti Lateralis Radix extract 1 g/kg on 8th day, P. ginseng-middle (1 g/kg oral, 7 days), read-out: CLz/F (converted)
measurement kind: CL/F

Tell me the measured CL/F of `COC[C@@]12CC[C@H](OC)[C@]34C(C([C@H](OC)[C@H]13)[C@]1(OC(C)=O)[C@H]3[C@@H](OC(=O)c5ccccc5)[C@](O)(C[C@H]34)[C@@H](OC)[C@@H]1O)N(C)C2` , please. 2360 mL/min/kg

Would you kindly repeat that for `CCN1C[C@]2(COC)[C@H](O)C[C@H](OC)[C@@]34[C@@H]5C[C@@]6(O)[C@H](OC(=O)c7ccccc7)[C@@H]5[C@@](OC(C)=O)([C@@H]([C@H](OC)[C@H]23)[C@@H]14)[C@@H](O)[C@@H]6OC` ? 2830 mL/min/kg

* * *

assay: Pharmacokinetics of three diester alkaloids in rat plasma after oral Aconiti Lateralis Radix extract, with or without 7-day P. ginseng pretreatment; type: in vivo, Sprague-Dawley rats; conditions: Sprague-Dawley, rat, in vivo, po, 1 g/kg, oral Aconiti Lateralis Radix extract 1 g/kg on 8th day, P. ginseng-low (0.1 g/kg oral, 7 days), read-out: Cmax
measurement kind: Cmax (ng/mL)
// note: answer is a bare numeric in ng/mL

record smiles	Cmax [ng/mL]
CCN1C[C@]2(COC)[C@H](O)C[C@H](OC)[C@@]34[C@@H]5C[C@@]6(O)[C@H](OC(=O)c7ccccc7)[C@@H]5[C@@](OC(C)=O)([C@@H]([C@H](OC)[C@H]23)[C@@H]14)[C@@H](O)[C@@H]6OC	5.03

Tell me the measured Cmax of `COC[C@@]12CC[C@H](OC)[C@]34C(C([C@H](OC)[C@H]13)[C@]1(OC(C)=O)[C@H]3[C@@H](OC(=O)c5ccccc5)[C@](O)(C[C@H]34)[C@@H](OC)[C@@H]1O)N(C)C2` , please. 4.02

* * *

assay: Pharmacokinetics of three diester alkaloids in rat plasma after oral Aconiti Lateralis Radix extract, with or without 7-day P. ginseng pretreatment; format: in vivo, Sprague-Dawley rats; details: Sprague-Dawley, rat, in vivo, po, 1 g/kg, oral Aconiti Lateralis Radix extract 1 g/kg on 8th day, P. ginseng-high (10 g/kg oral, 7 days), read-out: Cmax
Here, each record is paired with measured Cmax data.
// note: answer is a bare numeric in ng/mL

record smiles	units of measure	meas value
CCN1C[C@]2(COC)[C@H](O)C[C@H](OC)[C@@]34[C@@H]5C[C@@]6(O)[C@H](OC(=O)c7ccccc7)[C@@H]5[C@@](OC(C)=O)([C@@H]([C@H](OC)[C@H]23)[C@@H]14)[C@@H](O)[C@@H]6OC	ng/mL	11.5

Now let's try a different one.
Tell me the measured Cmax of `COC[C@@]12CC[C@H](OC)[C@]34C(C([C@H](OC)[C@H]13)[C@]1(OC(C)=O)[C@H]3[C@@H](OC(=O)c5ccccc5)[C@](O)(C[C@H]34)[C@@H](OC)[C@@H]1O)N(C)C2` , please. 4.87

* * *

assay: Pharmacokinetics of three diester alkaloids in rat plasma after oral Aconiti Lateralis Radix extract, with or without 7-day P. ginseng pretreatment; assay type: in vivo, Sprague-Dawley rats; conditions: Sprague-Dawley, rat, in vivo, po, 1 g/kg, oral Aconiti Lateralis Radix extract 1 g/kg on 8th day, P. ginseng-high (10 g/kg oral, 7 days), read-out: Vz/F
measurement kind: Vd/F (L/kg)
// note: answer is a bare numeric in L/kg

record smiles	units of measure	meas value
COC[C@@]12CC[C@H](OC)[C@]34C(C([C@H](OC)[C@H]13)[C@]1(OC(C)=O)[C@H]3[C@@H](OC(=O)c5ccccc5)[C@](O)(C[C@H]34)[C@@H](OC)[C@@H]1O)N(C)C2	L/kg	2280

Tell me the measured Vd/F of `CCN1C[C@]2(COC)[C@H](O)C[C@H](OC)[C@@]34[C@@H]5C[C@@]6(O)[C@H](OC(=O)c7ccccc7)[C@@H]5[C@@](OC(C)=O)([C@@H]([C@H](OC)[C@H]23)[C@@H]14)[C@@H](O)[C@@H]6OC` , please. 1550

* * *

Here, each record is paired with measured Vd/F data.
experiment: Pharmacokinetics of three diester alkaloids in rat plasma after oral Aconiti Lateralis Radix extract, with or without 7-day P. ginseng pretreatment; assay type: in vivo, Sprague-Dawley rats; details: Sprague-Dawley, rat, in vivo, po, 1 g/kg, oral Aconiti Lateralis Radix extract 1 g/kg on 8th day, control group (distilled water 7 days), read-out: Vz/F
// note: answer is a bare numeric in L/kg

record smiles	measurement kind	units of measure	meas value
CCN1C[C@]2(COC)[C@H](O)C[C@H](OC)[C@@]34[C@@H]5C[C@@]6(O)[C@H](OC(=O)c7ccccc7)[C@@H]5[C@@](OC(C)=O)([C@@H]([C@H](OC)[C@H]23)[C@@H]14)[C@@H](O)[C@@H]6OC	Vd/F	L/kg	3350

Now let's try a different one.
Tell me the measured Vd/F of `COC[C@@]12CC[C@H](OC)[C@]34C(C([C@H](OC)[C@H]13)[C@]1(OC(C)=O)[C@H]3[C@@H](OC(=O)c5ccccc5)[C@](O)(C[C@H]34)[C@@H](OC)[C@@H]1O)N(C)C2` , please. 3880

Origin of the recorded values: paper PMC6304572
